Origin of values: patent US20170044545

# assayed-target: Autotaxin (ENPP2, NPP2) (Homo sapiens, UniProt Q13822 Q13822:36-863)
# protocol-details: inhibition
Item-by-item account of IC50
value-kind: IC50

* SEQ 8 aptamer (ssRNA, 2'-F pyrimidines, 2'-OH purines) RNA: GGGUGGCAACAGGACAUGGAACGCGCCCCAACUGCUUGAAACAGGUUUUGCUGAGCAGUGAUGUGAGAUGCGUCUUCGUAC | 49 nM
* UCUGAGGGAAACAGGUUUUGCUCCUCGGA (mixed, as 16(43) with PS at A10) [SEQ 16(44)] | 2.8 nM
* UCUGAGGGUAACAGGUUUUGCUCCUCGGA (ssRNA, 2'-F pyrimidines, 2'-OH purines) [SEQ 40] | 49 nM
* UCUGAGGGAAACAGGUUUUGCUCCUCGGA (mixed, as 16(4) with dC23 dC24) [SEQ 16(12)] | 37 nM
* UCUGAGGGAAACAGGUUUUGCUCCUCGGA (mixed, as 16(45) with PS at A10) [SEQ 16(46)] | 2 nM
* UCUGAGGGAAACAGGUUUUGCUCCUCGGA (mixed, as 16(21) with dT1 dC23 dC26) [SEQ 16(47)] | 2.4 nM
* UCUGAGGGAAACAGGUUUUGCUCCUCAGA (ssRNA, 2'-F pyrimidines, 2'-OH purines) [SEQ 30] | 50 nM
* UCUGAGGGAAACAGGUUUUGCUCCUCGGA (mixed, as 16(22) with 5' 40 kDa PEG (GL2-400GS2)-ssH linker instead of 5' idT) [SEQ 16(23)] | 1.1 nM
* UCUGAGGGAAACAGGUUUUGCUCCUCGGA (ssRNA, as 16(2) + 5' and 3' idT (G14 printed lower case, probably typo)) [SEQ 16(4)] | 17 nM
* UCUGAGGGAAACAGGUUUCGCUCCUCGGA (ssRNA, 2'-F pyrimidines, 2'-OH purines) [SEQ 32] | 55 nM
* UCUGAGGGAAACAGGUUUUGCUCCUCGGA (ssRNA, 2'-F all pyrimidines and G8; 2'-OMe G4 A5 G6 G7 A9 A11 A13 G20 G27 G28 A29; 2'-OH A10 G14 G15) [SEQ 16(2)] | 22 nM
* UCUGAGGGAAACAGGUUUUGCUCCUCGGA (mixed, as 16(21) with dC23 dC24 dC26) [SEQ 16(33)] | 0.6 nM
* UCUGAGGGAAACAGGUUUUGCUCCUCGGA (ssRNA, as 16(1) + 5' and 3' idT) [SEQ 16(3)] | 10 nM
